- targetOfAssay: hCRTH2 (Homo sapiens, UniProt Q9Y5Y4)
- Construct: expressed in transfected cells; host or cells: HEK (human embryonic kidney) cells expressing hCRTH2; membrane preparation
- experimentalDetails: Radioligand binding assay ([3H]PGD2 competition, HEK-hCRTH2 membranes)
- reportedConditions: [3H]PGD2 binding, rated A-E (Table A)
experimentalEndpoint: Ki

Use these answered entries as a reference point.
compound="CC(CCc1nc2cc(C(=O)N3CC[C@@H](c4ccccc4)C3)ccc2nc1-c1ccc(Cl)cc1)CC(=O)O (some centres unmarked) [17K]" recordedmeasurement="0.1 to 2 nM"
compound="O=C(O)CCCCc1nc2cc(C(=O)N3CC4(CCNCC4)C3)ccc2nc1-c1ccccc1 [15i]" recordedmeasurement="201 to 700 nM"
compound="CC(NC(=O)c1cnc2nc(-c3ccccc3)c(CCCCC(=O)O)nc2c1)c1ccncc1 (centres unmarked) [14H]" recordedmeasurement="20.1 to 200 nM"
compound="O=C(O)CCCCc1nc2cc(C(=O)N[C@H](c3ccccc3)C(F)(F)F)ccc2nc1-c1ccc(Cl)cc1 [16AH]" recordedmeasurement="2.1 to 20 nM"
compound=O=C(O)CCCCc1nc2cc(C(=O)NCc3cccc(Cl)c3)ccc2nc1-c1ccc(C(F)(F)F)cc1 recordedmeasurement="0.1 to 2 nM"

Ask | May I ask what Ki has been recorded for C[C@H](NC(=O)c1cnc2nc(-c3ccccc3)c(CCCCC(=O)O)nc2c1)c1ccccc1 [14C] ?
Reply | 20.1 to 200 nM

Ask | Same question, CC(CCCc1nc2cc(C(=O)N3CC[C@@H](c4ccccc4)C3)ccc2nc1-c1ccc(C(F)(F)F)cc1)C(=O)O (some centres unmarked) [18E] this time
Reply | 0.1 to 2 nM

Ask | Same question, O=C(O)CCCCc1nc2cc(C(=O)N3CCc4ccccc4C3)ccc2nc1-c1ccccc1 [15AP] this time
Reply | 2.1 to 20 nM

----------
- targetOfAssay: hCRTH2 (Homo sapiens)
- Construct: expressed in transfected cells; host or cells: HEK (human embryonic kidney) cells expressing hCRTH2; membrane preparation
- experimentalDetails: Radioligand binding assay ([3H]PGD2 competition, HEK-hCRTH2 membranes)
- reportedConditions: [3H]PGD2 binding, values in text
- Protocol: Biological Assays Radioligand Binding Assay. Radioligand binding assays were performed at room temperature in 50 mM Tris-HCl pH 7.4, 1 mM EDTA containing 2 mM MnCl2 and 3.0 nM [^3H]PGD2 (New England Nuclear, Boston, Mass.) (171 Ci mmol^−1), in a final volume of 0.2 mL. […] Total and non-specific binding were determined in the absence and the presence of 10 μM PGD2, respectively. […] The radioactivity was measured with Betaplate model 1205 (Wallac).
experimentalEndpoint: Ki (nM)

Use these answered entries as a reference point.
molecule="Cc1cc2nc(-c3ccccc3)c(CCCCC(=O)O)nc2cc1C(=O)N[C@@H]1CCCc2ccccc21 [compound 526]" unitdescriptor=nM recordedmeasurement=259
molecule="Cc1cnnn1C1CCN(C(=O)c2ccc3nc(-c4ccccc4)c(CCCCC(=O)O)nc3c2)CC1 [15BR]" unitdescriptor=nM recordedmeasurement=0.1
molecule="C[C@@H]1CN(c2ccccc2)CCN1C(=O)c1ccc2nc(-c3ccccc3)c(CCCCC(=O)O)nc2c1 [compound 41]" unitdescriptor=nM recordedmeasurement=8.8

I = O=C(O)CCCCc1nc2cc(C(=O)N3CCC4(CC3)CNC4)ccc2nc1-c1ccccc1 [15H]
II = O=C(O)CCCCc1nc2cc(C(=O)N[C@@H]3CCCc4cc(Cl)ccc43)ccc2nc1-c1ccccc1 [compound 255]
III = O=C(O)CCCCc1nc2cc(C(=O)N3CCN(S(=O)(=O)c4ccccc4)CC3)ccc2nc1-c1ccccc1 [15o]
Ask | In this exercise, place the 3 molecules in ascending sequence of their recorded Ki. # the answer lists labels in the order requested
Reply | II, III, I
(II: 1.5 nM, III: 16.7 nM, I: 152 nM)

A = O=C(O)CCCCc1nc2cc(C(=O)N3CCN(c4ccccc4)CC3)ccc2nc1-c1ccc(Cl)cc1 [16AG]
B = C[C@@H](NC(=O)c1ccc2nc(-c3ccccc3)c(CCCC(=O)O)nc2c1)c1ccc(F)cc1 [compound 36]
C = C[C@@H](NC(=O)c1ccc2nc(-c3ccccc3)c(CCCCC(=O)O)nc2c1)c1ccc(Cl)cc1 [15AX]
D = O=C(O)CCCCc1nc2cc(C(=O)N3CCC(c4ccccc4)CC3)ccc2nc1-c1cncnc1 [26Q]
Ask | In this exercise, place the 4 molecules in ascending sequence of their recorded Ki. # the answer lists labels in the order requested
Reply | A, C, D, B
(A: 1.2 nM, C: 3 nM, D: 96.7 nM, B: 716 nM)

I = COc1ccc(-c2nc3ccc(C(=O)N4CCC(c5ccccc5)CC4)cc3nc2CCCCC(=O)O)cc1 [26o]
II = O=C(O)CCCCc1nc2cc(C(=O)N3CCC(c4ccccc4)C3)ccc2nc1-c1ccc(C(F)(F)F)cc1 (stereo in doubt) [compound 152]
Ask | Quick one: lower Ki, I or II ? Reply briefly: the label of your chosen item.
Reply | I

----------
Listed below: Ki values for each entry.
- targetOfAssay: hCRTH2 (Homo sapiens)
- Construct: expressed in transfected cells; host or cells: HEK (human embryonic kidney) cells expressing hCRTH2; membrane preparation
- experimentalDetails: Radioligand binding assay ([3H]PGD2 competition, HEK-hCRTH2 membranes)
- reportedConditions: [3H]PGD2 competition, Table B

Use these answered entries as a reference point.
compound=O=C(N[C@@H]1CCCc2ccccc21)c1ccc2nc(-c3ccccc3)c(CCCC(F)(F)C(=O)O)nc2c1 recordedmeasurement="2.1 to 20 nM"
compound="CC1Cc2ccccc2CCN1C(=O)c1ccc2nc(-c3ccc(Cl)cc3)c(CCCCC(=O)O)nc2c1 (stereo not shown)" recordedmeasurement="2.1 to 20 nM"

Ask | May I ask what Ki has been recorded for O=C(N[C@@H]1CCCc2ccccc21)c1ccc2nc(-c3ccccc3)c(CCCC(O)C(=O)O)nc2c1 (stereo partly shown) ?
Reply | 201 to 700 nM

Ask | Same question, O=C(O)CCCCc1nc2cc(C(=O)N3CCN(c4cccnc4)CC3)ccc2nc1-c1ccc(Cl)cc1 this time
Reply | 2.1 to 20 nM

Ask | Same question, O=C(O)CCCCc1nc2cc(C(=O)N3CC(c4cccc(F)c4)C3)ccc2nc1-c1ccc(Cl)cc1 this time
Reply | 0.1 to 2 nM

Ask | Same question, O=C(O)CCCCc1nc2cc(C(=O)N[C@H]3CCCc4cc(Cl)ccc43)ccc2nc1-c1ccccc1 this time
Reply | 2.1 to 20 nM

Ask | Same question, O=C(N[C@H](c1ccccc1)C(F)(F)F)c1ccc2nc(-c3ccc(Cl)cc3)c(CC3CCC(C(=O)O)C3)nc2c1 (stereo partly shown) this time
Reply | 2.1 to 20 nM

Ask | Same question, O=C(O)CCCCc1nc2cc(C(=O)N3CC(OCc4ccccc4)C3)ccc2nc1-c1ccc(Cl)cc1 this time
Reply | 2.1 to 20 nM

Ask | Same question, O=C(O)Cc1cccc(CCCc2nc3cc(C(=O)N[C@H]4CCCc5ccccc54)ccc3nc2-c2ccc(F)cc2)c1 this time
Reply | 201 to 700 nM

Ask | Same question, Cn1cnc(C2CCN(C(=O)c3ccc4nc(-c5ccc(Cl)cc5)c(CCCCC(=O)O)nc4c3)CC2)c1 this time
Reply | 2.1 to 20 nM

Ask | Same question, CC(CCc1nc2cc(C(=O)N[C@H]3CCCc4ccccc43)ccc2nc1-c1ccc(F)cc1)CC(=O)O (stereo partly shown) this time
Reply | 2.1 to 20 nM

Ask | Same question, O=C(O)CCCCc1nc2cc(C(=O)N[C@@H]3CCOc4ccccc43)c(F)cc2nc1-c1ccccc1 this time
Reply | 2.1 to 20 nM

Ask | Same question, C[C@@H](NC(=O)c1ccc2nc(-c3ccc(Cl)cc3)c(CCCCC(=O)O)nc2c1)c1ccc(F)c(F)c1 this time
Reply | 0.1 to 2 nM

----------
- targetOfAssay: hCRTH2 (Homo sapiens, UniProt Q9Y5Y4)
- Construct: expressed in transfected cells; host or cells: HEK (human embryonic kidney) cells expressing hCRTH2; membrane preparation
- Sequence (Q9Y5Y4 1-395): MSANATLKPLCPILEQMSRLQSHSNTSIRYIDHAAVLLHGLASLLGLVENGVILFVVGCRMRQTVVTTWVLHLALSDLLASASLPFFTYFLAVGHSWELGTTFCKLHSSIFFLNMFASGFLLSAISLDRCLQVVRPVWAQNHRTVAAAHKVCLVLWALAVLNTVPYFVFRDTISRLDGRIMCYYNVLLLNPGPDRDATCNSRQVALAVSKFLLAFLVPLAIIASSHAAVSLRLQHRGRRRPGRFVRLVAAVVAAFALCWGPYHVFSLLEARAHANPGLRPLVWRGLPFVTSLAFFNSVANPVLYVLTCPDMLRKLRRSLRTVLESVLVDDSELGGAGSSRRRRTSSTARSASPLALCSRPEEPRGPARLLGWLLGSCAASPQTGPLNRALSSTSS
- experimentalDetails: Radioligand binding assay ([3H]PGD2 competition, HEK-hCRTH2 membranes)
- reportedConditions: [3H]PGD2 binding, rated A-E (Table A)
pKi: −log10 of the molar value.
Listed below: pKi values for each entry.

compound="C[C@@H](NC(=O)c1ccc2nc(-c3ccc(Cl)cc3)c(CCCCC(=O)O)nc2c1)c1ccc(F)cc1 [16S]" recordedmeasurement="8.70 to 10.00"
compound=COC(=O)c1ccc2nc(-c3ccccc3)c(OCCCC(=O)O)nc2c1 recordedmeasurement="7.70 to 8.68"
compound=O=C(O)CCCOc1nc2cc(C(=O)NCc3cccnc3)ccc2nc1-c1ccccc1 recordedmeasurement="7.70 to 8.68"

Next item in the queue.
Ask | May I ask what pKi has been recorded for O=C(O)C1CC(Cc2nc3cc(C(=O)N4CCC(c5ccccc5)CC4)ccc3nc2-c2ccc(Cl)cc2)C1 (stereo not shown) ?
Reply | 7.70 to 8.68
